# tested_system: MAGI2_6, Q86UL8
# Sequence (Q86UL8 1141-1229): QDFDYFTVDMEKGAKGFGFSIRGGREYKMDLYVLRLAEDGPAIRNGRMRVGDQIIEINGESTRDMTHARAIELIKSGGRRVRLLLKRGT
# protocol: holdup assay
# Design: key: below the threshold = too weak to quantify, mostly under pKd 3.1 to 4
# conditions_used: plain residues with an end cap or a label only (N-terminal biotin on a linker: ado-ado)
readout: pKd

> print(dat)
                         binder  readout           test.value
1   QKASRNESTF [POLR1D, P0DPB6]      pKd  below the threshold
2    KEKASTETEC [TRPM1, Q7Z4N2]      pKd  below the threshold
3  NNMAFETTHF [SLC5A12, Q1EHB4]      pKd                    4
4    TFSRRPKTRV [CD226, Q15762]      pKd  below the threshold
